Test system: Staphylococcus aureus
Assay: Antibacterial activity against methicillin-resistant Staphylococcus aureus by NCCLS method
Type: functional
Consider the cut-off 20 µg/mL. If the recorded MIC is strictly smaller, the label is 1; if not, the label is -1.

* O=C1C=C(O)C(=O)c2ccccc21 [LAWSONE] | -1
* COC(=O)CCCNC(=O)CSC1=C(OC)C(=O)c2ccccc2C1=O | 1
* COC(=O)[C@H](CC(C)C)NC(=O)CSC1=C(OC)C(=O)c2ccccc2C1=O | 1
* COC(=O)[C@H](Cc1ccccc1)NC(=O)CSC1=C(C)C(=O)c2ccccc2C1=O | 1
* COC(=O)[C@@H](NC(=O)CSC1=C(C)C(=O)c2cccc(OC)c2C1=O)C(C)C | 1
* CC1=CC(=O)c2ccccc2C1=O [MENADIONE] | 1
* COC(=O)[C@@H](NC(=O)CSC1=C(OC)C(=O)c2ccccc2C1=O)C(C)C | 1
* COC(=O)[C@H](Cc1ccccc1)NC(=O)CSC1=C(C)C(=O)c2cccc(OC)c2C1=O | -1
* COC(=O)CNC(=O)CSC1=C(C)C(=O)c2ccccc2C1=O | 1
* COC(=O)CNC(=O)CSC1=C(OC)C(=O)c2ccccc2C1=O | 1
* CN[C@@H]1[C@H](O[C@H]2[C@H](O[C@H]3[C@H](O)[C@@H](O)[C@H](N=C(N)N)[C@@H](O)[C@@H]3N=C(N)N)O[C@@H](C)[C@]2(O)C=O)O[C@@H](CO)[C@H](O)[C@H]1O [STREPTOMYCIN] | 1
* COC(=O)[C@H](CC(C)C)NC(=O)CSC1=C(C)C(=O)c2cccc(OC)c2C1=O | 1
* COC(=O)[C@H](CC(C)C)NC(=O)CSC1=C(C)C(=O)c2ccccc2C1=O | 1
* COC(=O)CNC(=O)CSC1=CC(=O)c2cccc(OC)c2C1=O | 1
* COC(=O)[C@H](C)NC(=O)CSC1=CC(=O)c2cccc(OC)c2C1=O | 1
* COC(=O)CCCNC(=O)CSC1=C(C)C(=O)c2ccccc2C1=O | 1
* CC[C@H](C)[C@H](NC(=O)CSC1=C(OC)C(=O)c2ccccc2C1=O)C(=O)OC | 1
* CC[C@H](C)[C@H](NC(=O)CSC1=C(C)C(=O)c2ccccc2C1=O)C(=O)OC | 1
* CC[C@H](C)[C@H](NC(=O)CSC1=CC(=O)c2cccc(OC)c2C1=O)C(=O)OC | 1
* COC(=O)[C@H](CC(C)C)NC(=O)CSC1=CC(=O)c2cccc(OC)c2C1=O | 1
* COC(=O)[C@@H](NC(=O)CSC1=CC(=O)c2cccc(OC)c2C1=O)C(C)C | 1
* COC(=O)[C@H](C)NC(=O)CSC1=C(C)C(=O)c2cccc(OC)c2C1=O | -1
* COC(=O)[C@H](Cc1ccccc1)NC(=O)CSC1=CC(=O)c2cccc(OC)c2C1=O | 1
* COC(=O)[C@@H](NC(=O)CSC1=C(C)C(=O)c2ccccc2C1=O)C(C)C | 1
* COC(=O)CNC(=O)CSC1=C(C)C(=O)c2cccc(OC)c2C1=O | -1
* COC(=O)[C@H](C)NC(=O)CSC1=C(OC)C(=O)c2ccccc2C1=O | -1
* COC(=O)CCCNC(=O)CSC1=C(C)C(=O)c2cccc(OC)c2C1=O | 1
* COC(=O)[C@H](C)NC(=O)CSC1=C(C)C(=O)c2ccccc2C1=O | 1
* CC1=CC(=O)c2c(O)cccc2C1=O [PLUMBAGIN] | -1

###

Tested on: SAS
Test: Cytotoxicity against human SAS cells assessed as reduction in cell viability after 48 hrs by MTT assay
Assay type: functional, cell-based
Reported IC50 values for the following molecules.
MEASURED ENDPOINT: IC50 (µM)

* COC(=O)[C@H](Cc1ccccc1)NC(=O)CSC1=CC(=O)c2cccc(OC)c2C1=O | 40
* CC[C@H](C)[C@H](NC(=O)CSC1=C(OC)C(=O)c2ccccc2C1=O)C(=O)OC | 60
* CC1=CC(=O)c2ccccc2C1=O | 14
* COC(=O)CNC(=O)CSC1=C(OC)C(=O)c2ccccc2C1=O | 12
* CC1=CC(=O)c2c(O)cccc2C1=O | 3
* COC(=O)[C@H](Cc1ccccc1)NC(=O)CSC1=C(C)C(=O)c2cccc(OC)c2C1=O | 56.5
* COC(=O)[C@@H](NC(=O)CSC1=CC(=O)c2cccc(OC)c2C1=O)C(C)C | 45
* COC(=O)[C@@H](NC(=O)CSC1=C(OC)C(=O)c2ccccc2C1=O)C(C)C | 56
* COC(=O)[C@H](C)NC(=O)CSC1=C(OC)C(=O)c2ccccc2C1=O | 14
* COC(=O)[C@H](CC(C)C)NC(=O)CSC1=C(C)C(=O)c2cccc(OC)c2C1=O | 78.5
